Measured values drawn from patent US20230014722A1 for this set.

- Tested on: cynomolgus PD-1 antigen protein of the affinity-maturation screen (cynomolgus)
- Protocol description: capture ELISA, second-round affinity-maturation screen (scFv format likely); unit not given
Metric name: Bmax
Give the value as a plain number.

See these solved cases before continuing.
- Binder: "A6W (antibody, V domains shown) VH: QVQLVQSGAEVKKPGSSVKVSCKASGFTFTTYYISWVRQAPGQGLEYLGYINMGSGGTNYNEKFKGRVTITADKSTSTAYMELSSLRSEDTAVYYCAILGYFDYWGQGTMVTVSS VL: DVVMTQSPLSLPVTLGQPASISCRSSQSLLDSDGNTYLYWFQQRPGQSPRRLIYLVSTLGSGVPDRFSGSGSGTDFTLKISRVEAEDVGVYYCMQLTHWPYTFGQGTKLEIK"
  Bmax: 0.0787
- Binder: "2E5 (antibody, human IgG4, V domains shown) VH: QVQLVQSGAEVKKPGSSVKVSCKASGFTFTTYYISWVRQAPGQGLEYLGYINMGSGGTNYNEKFKGRVTITADKSTSTAYMELSSLRSEDTAVYYCAIIGYFDYWGQGTMVTVSS VL: DVVMTQSPLSLPVTLGQPASISCRSSQSLLDSDGGTYLYWFQQRPGQSPRRLIYLVSTLGSGVPDRFSGSGSGTDFTLKISRVEAEDVGVYYCMQLTHWPYTFGQGTKLEIK"
  Bmax: 1.72

Please examine the following record next.
Request the reported Bmax associated with 1G10 (antibody, V domains shown) VH: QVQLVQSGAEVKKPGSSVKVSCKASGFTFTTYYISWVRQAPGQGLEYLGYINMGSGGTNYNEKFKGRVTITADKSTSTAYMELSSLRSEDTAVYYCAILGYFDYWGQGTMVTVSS VL: DVVMTQSPLSLPVTLGQPASISCRSSQSLLDSDGATYLYWFQQRPGQSPRRLIYLVSTLGSGVPDRFSGSGSGTDFTLKISRVEAEDVGVYYCMQLTHWPYTFGQGTKLEIK
1.08
